test.system: T1, human TREM2 (human) (UniProt Q9NZC2)
T1 sequence (looked up): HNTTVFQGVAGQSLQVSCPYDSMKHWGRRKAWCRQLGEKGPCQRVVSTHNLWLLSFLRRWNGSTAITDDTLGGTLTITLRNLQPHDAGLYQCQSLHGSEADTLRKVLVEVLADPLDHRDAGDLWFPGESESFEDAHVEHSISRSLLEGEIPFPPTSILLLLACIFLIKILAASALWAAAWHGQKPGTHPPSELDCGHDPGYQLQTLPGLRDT
assay.method.text: 2nd screen, 10 nM Ab
experimental.endpoint: Binding Signal (fold over 6E7 parental antibody) (fold)
Could you give me the number in fold? Just the number is fine.

Answered cases to consult:
binder: 6E7 variant V29 (antibody, V domains shown) VH: EVQLVQSGAEVKKPGESLKISCKGSGYSFKSYWIAWVRQMPGKGLEWMGIIYPGDSDTRYSPSFQGQVTISADKSISTAYLQWSSLKASDTAMYFCARQRTFYYDSSDYFDYWGQGTLVTVSS VL: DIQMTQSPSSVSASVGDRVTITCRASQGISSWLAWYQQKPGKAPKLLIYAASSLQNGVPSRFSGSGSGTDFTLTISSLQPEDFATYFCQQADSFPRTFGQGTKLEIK
assay.value: 1.67

binder: 6E7 variant V4 (antibody, V domains shown) VH: EVQLVQSGAEVKKPGESLKISCKGSGYSFGSYWIAWVRQMPGKGLEWMGIIYPGDSDTRVSPSFQGQVTISADKSISTAYLQWSSLKASDTAMYFCARSRTFYYDSSDYFDYWGQGTLVTVSS VL: DIQMTQSPSSVSASVGDRVTITCRASQGISSWLAWYQQKPGKAPKLLIYAASRLQNGVPSRFSGSGSGTDFTLTISSLQPEDFATYFCQQADSYPRTFGQGTKLEIK
assay.value: 5.51

binder: 6E7 variant V76 (antibody, V domains shown) VH: EVQLVQSGAEVKKPGESLKISCKGSGYSFGSYWIAWVRQMPGKGLEWMGIIYPGDSDTRYSPEFQGQVTISADKSISTAYLQWSSLKASDTAMYFCARQRTFYYDSSDYSDYWGQGTLVTVSS VL: DIQMTQSPSSVSASVGDRVTITCRASQGISSWLAWYQQKPGKAPKLLIYAASSLQKGVPSRFSGSGSGRDFTLTISSLQPEDFATYFCQQADSFPRTFGQGTKLEIK
assay.value: 4.93

binder: 6E7 variant V39 (antibody, V domains shown) VH: EVQLVQSGAEVKKPGESLKISCKGSGYSFGSYWIAWVRQMPGKGLEWMGIIYPGDSDTRYNPSFQGQVTISADKSISTAYLQWSSLKASDTAMYFCARGRTFYYDSSDYFDYWGQGTLVTVSS VL: DIQMTQSPSSVSASVGDRVTITCRASQGISSWLAWYQQKPGKAPKLLIYAASSLVNGVPSRFSGSGSGTDFTLTISSLQPEDFATYFCQQADSSPRTFGQGTKLEIK
assay.value: 5.81

Let us examine a further case.
Asked: State the recorded Binding Signal (fold over 6E7 parental antibody) for this entry: 6E7 variant V49 (antibody, V domains shown) VH: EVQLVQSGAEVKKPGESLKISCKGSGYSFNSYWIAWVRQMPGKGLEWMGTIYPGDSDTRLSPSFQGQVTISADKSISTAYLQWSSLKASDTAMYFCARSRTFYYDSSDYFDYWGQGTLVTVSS VL: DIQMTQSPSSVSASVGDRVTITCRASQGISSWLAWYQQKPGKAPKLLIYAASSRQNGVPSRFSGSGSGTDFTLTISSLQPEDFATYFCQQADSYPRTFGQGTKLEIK
Given back: 6.58
